Target: angiotensin-converting enzyme (Oryctolagus cuniculus, UniProt P12822)
Construct: angiotensin-converting enzyme preparation (from lungs of adult male rabbits); from tissue; host or cells: lungs of adult male rabbits
Sequence (P12822 34-1310): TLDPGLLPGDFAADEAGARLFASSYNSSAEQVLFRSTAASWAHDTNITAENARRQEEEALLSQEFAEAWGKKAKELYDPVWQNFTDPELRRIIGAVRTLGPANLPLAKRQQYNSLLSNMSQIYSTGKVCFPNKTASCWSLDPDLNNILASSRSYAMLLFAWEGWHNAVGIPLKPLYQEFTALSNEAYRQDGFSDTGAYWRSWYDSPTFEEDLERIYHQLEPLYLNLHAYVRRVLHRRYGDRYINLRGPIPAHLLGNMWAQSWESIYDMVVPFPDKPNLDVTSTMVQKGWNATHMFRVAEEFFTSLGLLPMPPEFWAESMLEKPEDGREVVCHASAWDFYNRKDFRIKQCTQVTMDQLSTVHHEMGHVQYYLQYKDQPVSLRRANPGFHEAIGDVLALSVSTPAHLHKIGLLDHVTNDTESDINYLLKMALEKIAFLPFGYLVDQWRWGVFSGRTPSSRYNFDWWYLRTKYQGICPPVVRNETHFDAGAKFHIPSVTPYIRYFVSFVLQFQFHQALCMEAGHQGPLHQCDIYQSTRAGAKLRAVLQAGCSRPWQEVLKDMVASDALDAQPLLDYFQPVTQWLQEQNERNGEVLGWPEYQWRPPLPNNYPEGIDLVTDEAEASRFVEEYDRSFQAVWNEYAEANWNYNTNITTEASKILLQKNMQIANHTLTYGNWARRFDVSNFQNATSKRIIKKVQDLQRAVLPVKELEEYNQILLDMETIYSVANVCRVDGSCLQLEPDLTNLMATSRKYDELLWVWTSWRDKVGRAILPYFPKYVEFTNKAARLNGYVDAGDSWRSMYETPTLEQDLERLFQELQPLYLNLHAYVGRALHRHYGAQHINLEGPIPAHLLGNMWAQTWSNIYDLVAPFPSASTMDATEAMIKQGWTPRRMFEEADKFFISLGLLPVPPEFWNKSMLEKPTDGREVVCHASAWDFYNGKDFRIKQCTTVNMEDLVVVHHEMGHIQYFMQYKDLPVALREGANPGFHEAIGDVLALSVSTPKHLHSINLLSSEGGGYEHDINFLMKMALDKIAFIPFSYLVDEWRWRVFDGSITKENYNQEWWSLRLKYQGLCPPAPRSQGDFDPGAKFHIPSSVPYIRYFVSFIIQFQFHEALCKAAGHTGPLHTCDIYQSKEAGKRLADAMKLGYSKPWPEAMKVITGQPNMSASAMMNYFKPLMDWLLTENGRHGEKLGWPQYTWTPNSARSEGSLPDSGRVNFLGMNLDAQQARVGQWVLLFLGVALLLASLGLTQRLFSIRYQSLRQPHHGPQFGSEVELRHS
Assay: in vitro inhibition of the angiotensin-converting enzyme (hippuryl-histidyl-leucine substrate)
Type: biochemical, rabbit
Conditions: in vitro test; enzyme from lungs of adult male rabbits; 37° C., 30 minutes
Experimental: Biophys. Acta 293, 451 (1973). According to this method, said compounds are dissolved at about 1 mM concentration in phosphate buffer. […] Said solutions are incubated at 37° C. for 30 minutes and combined with 0.75 ml of 0.6N aqueous sodium hydroxide to stop further reaction. […] These samples are read against water in a spectrophotometer set at 360 nm, and the optical densities thereof estimated. […]
Counter-ions that a name gives are not always drawn.
Reported IC50 values for a set of molecules
endpoint name: IC50 (nM)

> print(dat)
                                   molecule                            assayed.target  test.value
1  O=C(O)CN1C(=O)[C@@H](N[C@@H](CCc2ccccc2)C(=O)O)CCCc2ccccc21 [example 7a, hydrochloride]  angiotensin-converting enzyme (Oryctolagus cuniculus, UniProt P12822)         7.5
2  NCCCC[C@H](N[C@H]1CCCc2ccccc2N(CC(=O)O)C1=O)C(=O)O [S,S compound of example 12, hydrochloride]  angiotensin-converting enzyme (Oryctolagus cuniculus, UniProt P12822)          27
